Some molecules, each annotated with its measured pIC50.
tested on: A549; test: Cytotoxicity against human A549 cells assessed as viable cells after 72 hrs by calcein AM assay; assay type: functional, cell-based; conditions: A549, 72 h
pIC50: −log10 of the molar value.

mol | target_desc | pIC50
C=CCCCCCCCCC(=O)OC[C@@H](C)[C@@]1(O)[C@@H](O[C@@H]2OC[C@H](O)[C@H](O[C@@H]3OC[C@@H](O)[C@H](O)[C@H]3OC(=O)c3ccc(OC)cc3)[C@H]2OC(C)=O)C[C@H]2[C@@H]3CC=C4C[C@@H](O)CC[C@]4(C)[C@H]3CC[C@@]21C | A549 | 6.22
COc1ccc(C(=O)O[C@H]2[C@H](O[C@@H]3[C@@H](OC(C)=O)[C@H](O[C@H]4C[C@H]5[C@@H]6CC=C7C[C@@H](O)CC[C@]7(C)[C@H]6CC[C@]5(C)[C@@]4(O)[C@H](C)COC(=O)c4ccccc4)OC[C@@H]3O)OC[C@@H](O)[C@@H]2O)cc1 | A549 | 6.77
C=CCCCCC(=O)OC[C@@H](C)[C@@]1(O)[C@@H](O[C@@H]2OC[C@H](O)[C@H](O[C@@H]3OC[C@@H](O)[C@H](O)[C@H]3OC(=O)c3ccc(OC)cc3)[C@H]2OC(C)=O)C[C@H]2[C@@H]3CC=C4C[C@@H](O)CC[C@]4(C)[C@H]3CC[C@@]21C | A549 | 6.08
CCCCCCCCCCCCCCCCCC(=O)OC[C@@H](C)[C@@]1(O)[C@@H](O[C@@H]2OC[C@H](O)[C@H](O[C@@H]3OC[C@@H](O)[C@H](O)[C@H]3OC(=O)c3ccc(OC)cc3)[C@H]2OC(C)=O)C[C@H]2[C@@H]3CC=C4C[C@@H](O)CC[C@]4(C)[C@H]3CC[C@@]21C | A549 | 6.26

====

tested on: HCT-116; assay: Cytotoxicity against human HCT116 assessed as viable cells after 72 hrs by calcein AM assay; format: functional, cell-based; conditions: HCT-116, 72 h
pIC50: −log10 of the molar value.
quantity_kind: pIC50

mol | target_desc | quantity_kind | relation | reported_value
C=CCCCCCCCCC(=O)OC[C@@H](C)[C@@]1(O)[C@@H](O[C@@H]2OC[C@H](O)[C@H](O[C@@H]3OC[C@@H](O)[C@H](O)[C@H]3OC(=O)c3ccc(OC)cc3)[C@H]2OC(C)=O)C[C@H]2[C@@H]3CC=C4C[C@@H](O)CC[C@]4(C)[C@H]3CC[C@@]21C | HCT-116 | pIC50 | = | 5.59
COc1ccc(C(=O)OC[C@@H](C)[C@@]2(O)[C@@H](O[C@@H]3OC[C@H](O)[C@H](O[C@@H]4OC[C@@H](O)[C@H](O)[C@H]4OC(=O)c4ccc(OC)cc4)[C@H]3OC(C)=O)C[C@H]3[C@@H]4CC=C5C[C@@H](O)CC[C@]5(C)[C@H]4CC[C@@]32C)cc1 | HCT-116 | pIC50 | = | 5.30
C/C=C/C(=O)OC[C@@H](C)[C@@]1(O)[C@@H](O[C@@H]2OC[C@H](O)[C@H](O[C@@H]3OC[C@@H](O)[C@H](O)[C@H]3OC(=O)c3ccc(OC)cc3)[C@H]2OC(C)=O)C[C@H]2[C@@H]3CC=C4C[C@@H](O)CC[C@]4(C)[C@H]3CC[C@@]21C | HCT-116 | pIC50 | < | 4.30
CCCCCCCCC(=O)OC[C@@H](C)[C@@]1(O)[C@@H](O[C@@H]2OC[C@H](O)[C@H](O[C@@H]3OC[C@@H](O)[C@H](O)[C@H]3OC(=O)c3ccc(OC)cc3)[C@H]2OC(C)=O)C[C@H]2[C@@H]3CC=C4C[C@@H](O)CC[C@]4(C)[C@H]3CC[C@@]21C | HCT-116 | pIC50 | = | 5.31
C=CCCCCC(=O)OC[C@@H](C)[C@@]1(O)[C@@H](O[C@@H]2OC[C@H](O)[C@H](O[C@@H]3OC[C@@H](O)[C@H](O)[C@H]3OC(=O)c3ccc(OC)cc3)[C@H]2OC(C)=O)C[C@H]2[C@@H]3CC=C4C[C@@H](O)CC[C@]4(C)[C@H]3CC[C@@]21C | HCT-116 | pIC50 | = | 4.96
CCCCCCCCCCCCCC(=O)OC[C@@H](C)[C@@]1(O)[C@@H](O[C@@H]2OC[C@H](O)[C@H](O[C@@H]3OC[C@@H](O)[C@H](O)[C@H]3OC(=O)c3ccc(OC)cc3)[C@H]2OC(C)=O)C[C@H]2[C@@H]3CC=C4C[C@@H](O)CC[C@]4(C)[C@H]3CC[C@@]21C | HCT-116 | pIC50 | = | 5.55

====

system: A549; experiment: Cytotoxicity against human A549 cells assessed as viable cells after 72 hrs by calcein AM assay; assay type: functional, cell-based; conditions: A549, 72 h
Recorded IC50 values for a group of compounds are listed next.
quantity_kind: IC50 (nM)

mol | unit_abbreviation | relation | reported_value
CC(C)CCC(=O)[C@@H](C)[C@@]1(O)[C@@H](O)C[C@H]2[C@@H]3CC=C4C[C@@H](O)CC[C@]4(C)[C@H]3CC[C@@]21C | nM | > | 50000
COc1ccc(C(=O)OC[C@@H](C)[C@@]2(O)[C@@H](O[C@@H]3OC[C@H](O)[C@H](O[C@@H]4OC[C@@H](O)[C@H](O)[C@H]4OC(=O)c4ccc(OC)cc4)[C@H]3OC(C)=O)C[C@H]3[C@@H]4CC=C5C[C@@H](O)CC[C@]5(C)[C@H]4CC[C@@]32C)cc1 | nM | = | 570
CCCCCCCCCCCC(=O)OC[C@@H](C)[C@@]1(O)[C@@H](O[C@@H]2OC[C@H](O)[C@H](O[C@@H]3OC[C@@H](O)[C@H](O)[C@H]3OC(=O)c3ccc(OC)cc3)[C@H]2OC(C)=O)C[C@H]2[C@@H]3CC=C4C[C@@H](O)CC[C@]4(C)[C@H]3CC[C@@]21C | nM | = | 930
CCCCCCC(=O)OC[C@@H](C)[C@@]1(O)[C@@H](O[C@@H]2OC[C@H](O)[C@H](O[C@@H]3OC[C@@H](O)[C@H](O)[C@H]3OC(=O)c3ccc(OC)cc3)[C@H]2OC(C)=O)C[C@H]2[C@@H]3CC=C4C[C@@H](O)CC[C@]4(C)[C@H]3CC[C@@]21C | nM | = | 20

====

Quick list: pIC50 per entry.
tested on: A549; assay: Cytotoxicity against human A549 cells assessed as viable cells after 72 hrs by calcein AM assay; type: functional, cell-based; settings: A549, 72 h
pIC50: −log10 of the molar value.
quantity_kind: pIC50

mol | reported_value
CCCCC(=O)OC[C@@H](C)[C@@]1(O)[C@@H](O[C@@H]2OC[C@H](O)[C@H](O[C@@H]3OC[C@@H](O)[C@H](O)[C@H]3OC(=O)c3ccc(OC)cc3)[C@H]2OC(C)=O)C[C@H]2[C@@H]3CC=C4C[C@@H](O)CC[C@]4(C)[C@H]3CC[C@@]21C | 6.80
CCCCCCCCCCCCCC(=O)OC[C@@H](C)[C@@]1(O)[C@@H](O[C@@H]2OC[C@H](O)[C@H](O[C@@H]3OC[C@@H](O)[C@H](O)[C@H]3OC(=O)c3ccc(OC)cc3)[C@H]2OC(C)=O)C[C@H]2[C@@H]3CC=C4C[C@@H](O)CC[C@]4(C)[C@H]3CC[C@@]21C | 6.14
COc1ccc(C(=O)O[C@H]2[C@H](O[C@@H]3[C@@H](OC(C)=O)[C@H](O[C@H]4C[C@H]5[C@@H]6CC=C7C[C@@H](O)CC[C@]7(C)[C@H]6CC[C@]5(C)[C@@]4(O)[C@H](C)C(=O)CCC(C)C)OC[C@@H]3O)OC[C@@H](O)[C@@H]2O)cc1 | 7.57

====

tested on: G-361; assay: Cytotoxicity against human G361 cells assessed as viable cells after 72 hrs by calcein AM assay; assay type: functional, cell-based; details: G-361, 72 h

mol | IC50 [nM]
CCCCCCC(=O)OC[C@@H](C)[C@@]1(O)[C@@H](O[C@@H]2OC[C@H](O)[C@H](O[C@@H]3OC[C@@H](O)[C@H](O)[C@H]3OC(=O)c3ccc(OC)cc3)[C@H]2OC(C)=O)C[C@H]2[C@@H]3CC=C4C[C@@H](O)CC[C@]4(C)[C@H]3CC[C@@]21C | 1280
C=CCCCCCCCCC(=O)OC[C@@H](C)[C@@]1(O)[C@@H](O[C@@H]2OC[C@H](O)[C@H](O[C@@H]3OC[C@@H](O)[C@H](O)[C@H]3OC(=O)c3ccc(OC)cc3)[C@H]2OC(C)=O)C[C@H]2[C@@H]3CC=C4C[C@@H](O)CC[C@]4(C)[C@H]3CC[C@@]21C | 6.7
C=CCCCCC(=O)OC[C@@H](C)[C@@]1(O)[C@@H](O[C@@H]2OC[C@H](O)[C@H](O[C@@H]3OC[C@@H](O)[C@H](O)[C@H]3OC(=O)c3ccc(OC)cc3)[C@H]2OC(C)=O)C[C@H]2[C@@H]3CC=C4C[C@@H](O)CC[C@]4(C)[C@H]3CC[C@@]21C | 44
CCCCC(=O)OC[C@@H](C)[C@@]1(O)[C@@H](O[C@@H]2OC[C@H](O)[C@H](O[C@@H]3OC[C@@H](O)[C@H](O)[C@H]3OC(=O)c3ccc(OC)cc3)[C@H]2OC(C)=O)C[C@H]2[C@@H]3CC=C4C[C@@H](O)CC[C@]4(C)[C@H]3CC[C@@]21C | 390

Where these numbers come from: ChEMBL document CHEMBL1773000
